// provenance: ChEMBL document CHEMBL4152284

Measured pIC50, listed per entry.
Target: Acetylcholinesterase (Torpedo californica)
Sequence (P04058 whole entry): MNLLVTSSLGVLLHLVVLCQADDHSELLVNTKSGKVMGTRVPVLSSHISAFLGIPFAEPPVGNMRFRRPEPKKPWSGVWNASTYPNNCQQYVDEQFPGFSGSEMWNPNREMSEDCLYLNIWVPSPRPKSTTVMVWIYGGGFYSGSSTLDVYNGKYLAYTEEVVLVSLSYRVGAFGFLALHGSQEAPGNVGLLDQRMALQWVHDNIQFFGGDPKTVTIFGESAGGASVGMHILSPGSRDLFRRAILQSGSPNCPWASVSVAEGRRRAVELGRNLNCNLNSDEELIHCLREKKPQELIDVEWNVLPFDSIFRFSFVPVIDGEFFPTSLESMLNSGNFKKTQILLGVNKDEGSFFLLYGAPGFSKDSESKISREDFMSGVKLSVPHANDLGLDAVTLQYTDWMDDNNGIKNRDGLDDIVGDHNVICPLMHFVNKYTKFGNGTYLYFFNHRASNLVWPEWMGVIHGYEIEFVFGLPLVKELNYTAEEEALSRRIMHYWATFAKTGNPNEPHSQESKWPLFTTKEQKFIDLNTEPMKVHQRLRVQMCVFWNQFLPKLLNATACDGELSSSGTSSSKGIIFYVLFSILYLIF
Test: Inhibition of Torpedo californica AChE using acetylthiocholine iodide as substrate preincubated for 10 mins followed by substrate addition measured for 5 mins by Ellman's method
Assay type: single protein, Tetronarce californica
Note: pIC50 values are expressed as the negative base-10 logarithm of concentration in M.

Some solved cases for reference:
Cc1ccc(C[n+]2cccc(Cn3c4c(c5ccccc53)CCCC4)c2)cc1: 4.80
Fc1ccc(C[n+]2ccc(Cn3c4c(c5ccccc53)CCCC4)cc2)cc1: 4.48
Cc1cccc(C[n+]2ccc(Cn3c4c(c5ccccc53)CCCC4)cc2)c1: 5.29
Clc1ccc(C[n+]2cccc(Cn3c4c(c5ccccc53)CCCC4)c2)cc1: 4.56
Clc1ccc(C[n+]2ccc(Cn3c4c(c5ccccc53)CCCC4)cc2)cc1: 4.59

Attention now shifts to the item below.
-- ask // lookup pIC50 for Cc1ccc(C[n+]2ccc(Cn3c4c(c5ccccc53)CCCC4)cc2)cc1
-- reply 4.85
